Molecular target: human GPR119 (Homo sapiens)
Construct: expression vector for human GPR119 cDNA (Acc. No. NP_848566); Min-6/hGPR119
Sequence (Q8TDV5 1-335): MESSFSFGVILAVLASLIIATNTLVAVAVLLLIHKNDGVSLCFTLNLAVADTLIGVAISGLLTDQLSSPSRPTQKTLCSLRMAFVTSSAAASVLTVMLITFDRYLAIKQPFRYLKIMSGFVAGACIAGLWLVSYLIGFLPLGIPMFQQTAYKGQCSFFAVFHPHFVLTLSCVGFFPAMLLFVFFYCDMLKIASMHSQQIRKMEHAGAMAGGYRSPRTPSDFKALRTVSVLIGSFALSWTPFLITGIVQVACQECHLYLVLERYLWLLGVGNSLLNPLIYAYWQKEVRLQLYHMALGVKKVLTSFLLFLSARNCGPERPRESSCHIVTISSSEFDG
Assay: AlphaScreen cAMP assay in MIN6 cells stably transfected with human GPR119
Settings: Min-6/hGPR119 cells, 45 min at room temperature
Measurement Kind: EC50 (nM)

Compound: CC(C)(C)OC(=O)N1CCC(N(C(=O)c2cnc(-c3ccc(CO)cc3)nc2)C2CC2)CC1 [Example 81]
Study Target: human GPR119 (Homo sapiens)
Measurement Units: nM
EC50: 98

I = CC(C)(C)OC(=O)N1CCC(N(C(=O)c2cnc(-c3cnco3)o2)C2CC2)CC1 [Example 33]
II = Cc1noc(C2CCN(C(=O)c3ccc(-c4ncc(C(=O)N(C5CC5)C5CCN(C(=O)OC(C)(C)C)CC5)cn4)cc3F)C2)n1 (stereo not drawn) [Example 104]
Query: For the pair I and II , which entry has the numerically smaller recorded EC50? Lab log: write the label of the selected item as the result.
Response: II

P = CC(C)(C)OC(=O)N1CCC(N(C(=O)c2cnc(-c3cncnc3)nc2)C2CC2)CC1 [Example 71]
Q = CC(C)(C)OC(=O)N1CCC(N(C(=O)c2cnc(-c3ccc(C(=O)NCc4ccccn4)cc3)nc2)C2CC2)CC1 [Example 224]
R = COc1ccc(NC(=O)Cc2ccc(-c3ncc(C(=O)N(C4CC4)C4CCN(C(=O)OC(C)(C)C)CC4)cn3)cc2)c(OC)c1 [Example 188]
Query: Put these in order: smallest EC50 first, largest last. Output the labels ranked as instructed.
Response: P, Q, R
(P: 90 nM, Q: 157 nM, R: 311 nM)

a = CC(C)(C)OC(=O)N1CCC(N(C(=O)c2cnc(-c3ccc(CC(=O)NCC4CCCCO4)cc3)nc2)C2CC2)CC1 (stereo not drawn) [Example 219]
b = CCOCCNC(=O)c1ccc(-c2ncc(C(=O)N(C3CC3)C3CCN(C(=O)OC(C)(C)C)CC3)cn2)cc1 [Example 175]
c = COc1ncc(-c2ncc(C(=O)N(C3CC3)C3CCN(C(=O)OC(C)(C)C)CC3)cn2)cn1 [Example 82]
d = CC(C)(C)OC(=O)N1CCC(N(C(=O)c2cc(-c3ccc(C#N)cc3)no2)C2CC2)CC1 [Example 41]
Query: Descending sort on EC50 required. Write the labels, ordered according to the request.
Response: a, b, c, d
(a: 375 nM, b: 165 nM, c: 65 nM, d: 11 nM)

1 = CN(Cc1cccnc1)C(=O)c1ccc(-c2ncc(C(=O)N(C3CC3)C3CCN(C(=O)OC(C)(C)C)CC3)cn2)cc1 [Example 197]
2 = Cc1cn(-c2ncc(C(=O)N(C3CC3)C3CCN(C(=O)OC(C)(C)C)CC3)cn2)c(C)n1 [Example 98]
3 = COC[C@@H]1CCCN1C(=O)c1ccc(-c2ncc(C(=O)N(C3CC3)C3CCN(C(=O)OC(C)(C)C)CC3)cn2)cc1F [Example 108]
Query: Arrange these 3 compounds in increasing order of EC50. To answer, write out the labels according to the requested order.
Response: 2, 1, 3
(2: 71 nM, 1: 169 nM, 3: 312 nM)

1 = CC(C)(C)OC(=O)N1CCC(N(C(=O)c2cnc(-c3cnco3)c(F)c2)C2CC2)CC1 [Example 14]
2 = CC(C)(C)OC(=O)N1CCC(N(C(=O)c2cnc(-c3ccc(C(=O)NCC4CCOC4)cc3)nc2)C2CC2)CC1 (stereo not drawn) [Example 237]
Query: Of 1 and 2 , whose reported EC50 is the larger number? Indicate your choice by writing its label.
Response: 2
